Test system: 354836-022-R-J1-PDC multicell spheroid viability
Experiment: Anticancer human tumor 354836-022-R-J1-PDC patient-derived head and neck squamous cell carcinoma cell line growth inhibition [PI3K]
Conditions: second compound 10 µM; first compound 0.01 µM; stronger effect = lower value
observable: viability, T/C (%)
Numbers only, in %.

Before answering, review these 5 worked examples.
compound | viability, T/C / %
CCN1CCN(Cc2ccc(Nc3ncc(F)c(-c4cc(F)c5nc(C)n(C(C)C)c5c4)n3)nc2)CC1 + Cc1nc(NC(=O)N2CCCC2C(N)=O)sc1-c1ccnc(C(C)(C)C(F)(F)F)c1 | 36.6
CC(=O)c1c(C)c2cnc(Nc3ccc(N4CCNCC4)cn3)nc2n(C2CCCC2)c1=O + Cc1nc(NC(=O)N2CCCC2C(N)=O)sc1-c1ccnc(C(C)(C)C(F)(F)F)c1 | 35.4
CC(=O)c1c(C)c2cnc(Nc3ccc(N4CCNCC4)cn3)nc2n(C2CCCC2)c1=O + CC(Nc1ncnc2nc[nH]c12)c1cc2cccc(Cl)c2c(=O)n1-c1ccccc1 | 109
Cn1ncnc1[C@H]1c2n[nH]c(=O)c3cc(F)cc(c23)N[C@@H]1c1ccc(F)cc1 + Cc1nc(NC(=O)N2CCCC2C(N)=O)sc1-c1ccnc(C(C)(C)C(F)(F)F)c1 | 45.5
CC(C)n1nc(-c2ccc3oc(N)nc3c2)c2c(N)ncnc21 + CC(Nc1ncnc2nc[nH]c12)c1cc2cccc(Cl)c2c(=O)n1-c1ccccc1 | 62.7

Here are 3 compounds. What values of viability, T/C were reported for them?
1. CC(C)n1nc(-c2ccc3oc(N)nc3c2)c2c(N)ncnc21 + Cc1nc(NC(=O)N2CCCC2C(N)=O)sc1-c1ccnc(C(C)(C)C(F)(F)F)c1
2. Cn1ncnc1[C@H]1c2n[nH]c(=O)c3cc(F)cc(c23)N[C@@H]1c1ccc(F)cc1 + CC(Nc1ncnc2nc[nH]c12)c1cc2cccc(Cl)c2c(=O)n1-c1ccccc1
3. CCN1CCN(Cc2ccc(Nc3ncc(F)c(-c4cc(F)c5nc(C)n(C(C)C)c5c4)n3)nc2)CC1 + CC(Nc1ncnc2nc[nH]c12)c1cc2cccc(Cl)c2c(=O)n1-c1ccccc1

Response line:
26.4
93.3
92.8

###

System: 354836-022-R-J1-PDC multicell spheroid viability
Assay: Anticancer human tumor 354836-022-R-J1-PDC cell line growth inhibition [PI3K]; active = viability on the fitted dose curve at most 10% of control; inactive = the rest;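 note: spheroids exposed to agents for seven days before the viability read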
Details: second compound 0.316 µM; first compound 0.1 µM
Excerpt: Combinatorial screen of targeted agents with the PI3K inhibitors inavolisib, alpelisib, duvelisib, and copanlisib in multi-cell type tumor spheroids A high-throughput screen of multi-cell type tumor spheroids was designed to identify active combinations of targeted small molecules and PI3K pathway inhibitors. […] Compounds. […] If the clinical Cmax for an agent had not been determined, the highest concentration tested was 10 microM. […]
Write down the outcome that applies. Available outcomes: active, inactive

molecule | experimental-target | label-value
Cn1ncnc1[C@H]1c2n[nH]c(=O)c3cc(F)cc(c23)N[C@@H]1c1ccc(F)cc1 + CC(Nc1ccc2c(c1)OCCn1cc(N3C(=O)OCC3C(F)F)nc1-2)C(N)=O | 354836-022-R-J1-PDC multicell spheroid viability | inactive
CC(C)NCC(C(=O)N1CCN(c2ncnc3c2C(C)CC3O)CC1)c1ccc(Cl)cc1 (stereo unspecified) + COc1c(OCCCN2CCOCC2)ccc2c3n(c(=NC(=O)c4cnc(N)nc4)nc12)CCN3 | 354836-022-R-J1-PDC multicell spheroid viability | active
C#Cc1c(F)ccc2cc(O)cc(-c3ncc4c(N5CC6CCC(C5)N6)nc(OCC56CCCN5CC(F)C6)nc4c3F)c12 (stereo unspecified) + COc1c(OCCCN2CCOCC2)ccc2c3n(c(=NC(=O)c4cnc(N)nc4)nc12)CCN3 | 354836-022-R-J1-PDC multicell spheroid viability | inactive

Prompt line: Please share the test call associated with CC(C)NCC(C(=O)N1CCN(c2ncnc3c2C(C)CC3O)CC1)c1ccc(Cl)cc1 (stereo unspecified) + CC(Nc1ccc2c(c1)OCCn1cc(N3C(=O)OCC3C(F)F)nc1-2)C(N)=O .
Response line: inactive

Prompt line: Please share the test call associated with CC1(C)CCC(CN2CCN(c3ccc(C(=O)NS(=O)(=O)c4ccc(NCC5CCOCC5)c([N+](=O)[O-])c4)c(Oc4cnc5[nH]ccc5c4)c3)CC2)=C(c2ccc(Cl)cc2)C1 + CC(Nc1ccc2c(c1)OCCn1cc(N3C(=O)OCC3C(F)F)nc1-2)C(N)=O .
Response line: inactive

Prompt line: Please share the test call associated with C#Cc1c(F)ccc2cc(O)cc(-c3ncc4c(N5CC6CCC(C5)N6)nc(OCC56CCCN5CC(F)C6)nc4c3F)c12 (stereo unspecified) + CC(Nc1ncnc2nc[nH]c12)c1cc2cccc(Cl)c2c(=O)n1-c1ccccc1 .
Response line: inactive

Prompt line: Please share the test call associated with CC(C)n1nc(-c2ccc3oc(N)nc3c2)c2c(N)ncnc21 + CC(Nc1ncnc2nc[nH]c12)c1cc2cccc(Cl)c2c(=O)n1-c1ccccc1 .
Response line: active

Prompt line: Please share the test call associated with Cn1ncnc1[C@H]1c2n[nH]c(=O)c3cc(F)cc(c23)N[C@@H]1c1ccc(F)cc1 + CC(Nc1ncnc2nc[nH]c12)c1cc2cccc(Cl)c2c(=O)n1-c1ccccc1 .
Response line: inactive

###

Test system: 354836-022-R-J1-PDC multicell spheroid viability
Assay: Anticancer human tumor 354836-022-R-J1-PDC cell line growth inhibition [PI3K]; active means viability on the fitted dose curve at most 10% of control; inactive means the rest;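 note: spheroids exposed to agents for seven days before the viability read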
Conditions: second compound 1 µM; first compound 0.949 µM
Write down the outcome that applies. Available outcomes: true = active, false = inactive

molecule | experimental-target | label-value
Cn1cnc2c(F)c(Nc3ccc(Br)cc3Cl)c(C(=O)NOCCO)cc21 + CC(Nc1ccc2c(c1)OCCn1cc(N3C(=O)OCC3C(F)F)nc1-2)C(N)=O | 354836-022-R-J1-PDC multicell spheroid viability | false
Cn1cnc2c(F)c(Nc3ccc(Br)cc3Cl)c(C(=O)NOCCO)cc21 + CC(Nc1ncnc2nc[nH]c12)c1cc2cccc(Cl)c2c(=O)n1-c1ccccc1 | 354836-022-R-J1-PDC multicell spheroid viability | false
Cn1cnc2c(F)c(Nc3ccc(Br)cc3Cl)c(C(=O)NOCCO)cc21 + COc1c(OCCCN2CCOCC2)ccc2c3n(c(=NC(=O)c4cnc(N)nc4)nc12)CCN3 | 354836-022-R-J1-PDC multicell spheroid viability | true

Prompt line: Please share the test call associated with Cn1cnc2c(F)c(Nc3ccc(Br)cc3Cl)c(C(=O)NOCCO)cc21 + Cc1nc(NC(=O)N2CCCC2C(N)=O)sc1-c1ccnc(C(C)(C)C(F)(F)F)c1 .
Response line: false

###

System: 354836-022-R-J1-PDC multicell spheroid viability
Test: Anticancer human tumor 354836-022-R-J1-PDC cell line growth inhibition [PI3K];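 note: spheroids exposed to agents for seven days before the viability read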
Conditions: compound 10 µM; stronger effect = lower value
Description: Combinatorial screen of targeted agents with the PI3K inhibitors inavolisib, alpelisib, duvelisib, and copanlisib in multi-cell type tumor spheroids A high-throughput screen of multi-cell type tumor spheroids was designed to identify active combinations of targeted small molecules and PI3K pathway inhibitors. […] Compounds. […] If the clinical Cmax for an agent had not been determined, the highest concentration tested was 10 microM. […]
Can you tell me viability, T/C for the items I'm about to list?

Before answering, review these 3 worked examples.
compound | viability, T/C
Cn1ncc(Cl)c1-c1cc(C(=O)NC(CN)Cc2cccc(F)c2)sc1Cl (centres undefined) | 5.55% [middle of 4 runs]
CC(C)NCC(C(=O)N1CCN(c2ncnc3c2C(C)CC3O)CC1)c1ccc(Cl)cc1 (centres undefined) | 14.2% [middle of 4 runs]
Cn1nccc1Nc1nccc(-c2ccn(C(CO)c3ccc(Cl)c(F)c3)c(=O)c2)n1 (centres undefined) | 96.2% [middle of 4 runs]

Here are 2 compounds. What values of viability, T/C were reported for them?
1. CC(Nc1ncnc2nc[nH]c12)c1cc2cccc(Cl)c2c(=O)n1-c1ccccc1 (centres undefined)
2. CC(Cn1ccc(-c2ccc(C#N)c(Cl)c2)n1)NC(=O)c1cc(C(C)O)[nH]n1 (centres undefined)

Response line:
["94.6% [middle of 8 runs]", "77.8% [middle of 4 runs]"]

Here are 4 compounds. What values of viability, T/C were reported for them?
1. CNC(=O)c1ccc(N2C(=S)N(c3ccc(C#N)c(C(F)(F)F)c3)C(=O)C2(C)C)cc1F
2. Cc1nc(NC(=O)N2CCCC2C(N)=O)sc1-c1ccnc(C(C)(C)C(F)(F)F)c1 (centres undefined)
3. CC1(C)CCC(Nc2ncc(C(F)(F)F)c(-c3c[nH]c4c(P(C)(C)=O)c(C#N)ccc34)n2)CN1 (centres undefined)
4. C[C@@H](NC(=O)c1ncnc(N)c1Cl)c1ncc(C(=O)Nc2cc(C(F)(F)F)c(Cl)cn2)s1

Response line:
1: 96.7% [middle of 4 runs]; 2: 30.9% [middle of 8 runs]; 3: 2.79% [middle of 4 runs]; 4: 70.9% [middle of 4 runs]
